These data points were gathered from the supplement of paper PMC6555819.

Entries and their PBM binding z-score values follow.
System: LXRb:RXRa (NR concentration 270 nM, RXRa partner concentration 90 nM)
Assay: PBM binding z-score (relative to random genomic background probes); higher = stronger binding; sequences stand for … in GC…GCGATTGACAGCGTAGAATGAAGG
Please reply with the value in numeric form only.

Query: State, in one line, measured PBM binding z-score of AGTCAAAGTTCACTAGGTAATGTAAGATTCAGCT
Response: 3.07

Query: State, in one line, measured PBM binding z-score of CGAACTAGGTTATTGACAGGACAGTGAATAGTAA
Response: 0.406

---

Tested on: PPARg DBDmut:RXRa IVT, anti-PPARg (DBD mutation: PPARg1 K132A/R137A, NR concentration 270 nM, RXRa partner concentration 90 nM)
Experiment: PBM binding z-score (relative to random genomic background probes); higher = stronger binding; sequences stand for … in GC…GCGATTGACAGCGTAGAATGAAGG
readoutType: PBM binding z-score
Please reply with the value in numeric form only.

Look over these answered cases.
- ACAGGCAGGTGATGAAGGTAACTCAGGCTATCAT: 0.243
- CGAACTAGGTCATCCAGGGCAGTGAATACATTGA: 5.35
- ATACCAAGGTGATCGTGAGGTCGTTTATACTAAC: 0.496
- GCTAGCAGGCCATTTGGGTTACTCAATGACGGGC: -0.422
- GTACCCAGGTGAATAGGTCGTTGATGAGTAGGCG: -0.166

Query: State, in one line, measured PBM binding z-score of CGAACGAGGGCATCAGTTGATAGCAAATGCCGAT
Response: -0.013

Query: State, in one line, measured PBM binding z-score of CCGACTGGGACAAAGGTTACCATACTCAGTACGA
Response: 0.234

Query: State, in one line, measured PBM binding z-score of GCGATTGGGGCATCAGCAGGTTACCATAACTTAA
Response: -0.746

Query: State, in one line, measured PBM binding z-score of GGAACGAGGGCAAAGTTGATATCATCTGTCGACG
Response: 0.622

Query: State, in one line, measured PBM binding z-score of CGTCCAAGGTCATAGGAGGTCAGTTAAGACAGAT
Response: 0.532

Query: State, in one line, measured PBM binding z-score of CAAACTAGGTCACGAAAGGTCAAAGACGAATGAC
Response: 4.91

Query: State, in one line, measured PBM binding z-score of GCTTACGGGTCAAAGCTTATAGCATGAATAGAAT
Response: 0.68

Query: State, in one line, measured PBM binding z-score of CCTACTGGGCCATCAGGTCATTGAAATCAACGTT
Response: -0.467

Query: State, in one line, measured PBM binding z-score of TCTTGTAGATGAGCAGGTTAAGAAAGCTGGCCAA
Response: -0.514

Query: State, in one line, measured PBM binding z-score of GATACAGGGTCAAGGCCAGAGTTCGCGTATTGAT
Response: 0.606

Query: State, in one line, measured PBM binding z-score of CTAGACAGGTGAGAAGGTAACTCAGCCTCGATTA
Response: 0.184

Query: State, in one line, measured PBM binding z-score of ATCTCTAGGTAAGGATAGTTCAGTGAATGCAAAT
Response: 0.846

Query: State, in one line, measured PBM binding z-score of TCGAGTAGGTTAGGGGCATGCAGAATGGCGTCGA
Response: -0.639

Query: State, in one line, measured PBM binding z-score of AGAACGAGGGCACGCTGAGTTTATAGCAGAGTAG
Response: 1.13

Query: State, in one line, measured PBM binding z-score of CAAACTAGGCCAAAGGTCAAAGTCGAGCCAACCA
Response: 2.58

Query: State, in one line, measured PBM binding z-score of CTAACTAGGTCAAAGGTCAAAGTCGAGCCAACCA
Response: 2.95

Query: State, in one line, measured PBM binding z-score of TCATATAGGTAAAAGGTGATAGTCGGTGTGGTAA
Response: 1.26

Query: State, in one line, measured PBM binding z-score of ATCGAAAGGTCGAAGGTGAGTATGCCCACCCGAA
Response: 0.798

Query: State, in one line, measured PBM binding z-score of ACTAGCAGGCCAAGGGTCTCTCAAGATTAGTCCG
Response: -1.04

Query: State, in one line, measured PBM binding z-score of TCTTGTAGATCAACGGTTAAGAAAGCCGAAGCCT
Response: 0.699

Query: State, in one line, measured PBM binding z-score of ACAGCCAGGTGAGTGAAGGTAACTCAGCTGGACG
Response: -0.718

Query: State, in one line, measured PBM binding z-score of ATCTCGAGGTAAAGTTCAGTGAAAGATCGATAGA
Response: 0.853

Query: State, in one line, measured PBM binding z-score of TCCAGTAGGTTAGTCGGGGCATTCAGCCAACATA
Response: -0.197

Query: State, in one line, measured PBM binding z-score of ACAGACAGGTGATGAAGGTAACTGAGGCTATCAT
Response: 0.949

Query: State, in one line, measured PBM binding z-score of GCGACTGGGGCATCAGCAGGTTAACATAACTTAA
Response: -0.488

Query: State, in one line, measured PBM binding z-score of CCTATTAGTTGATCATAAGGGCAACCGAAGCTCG
Response: 0.203

Query: State, in one line, measured PBM binding z-score of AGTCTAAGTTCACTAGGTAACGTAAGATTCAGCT
Response: 0.895

Query: State, in one line, measured PBM binding z-score of CCTACTGGGACAAAAAGGTCATTGATGCCGATAA
Response: 0.444

Query: State, in one line, measured PBM binding z-score of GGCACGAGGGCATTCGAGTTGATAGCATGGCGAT
Response: -1.13

---

System: RARg:RXRa (NR concentration 270 nM, RXRa partner concentration 90 nM)
Assay: PBM binding z-score (relative to random genomic background probes); higher = stronger binding; sequences stand for … in GC…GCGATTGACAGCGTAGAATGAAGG
Entries and their PBM binding z-score values follow.

• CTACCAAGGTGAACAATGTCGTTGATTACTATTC = 0.711
• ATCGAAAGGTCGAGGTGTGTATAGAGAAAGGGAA = 4.23
• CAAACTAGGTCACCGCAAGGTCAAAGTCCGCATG = 8.07

Below: the item to evaluate.
Query: State, in one line, measured PBM binding z-score of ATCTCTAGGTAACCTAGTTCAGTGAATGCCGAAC
Response: 0.609

---

System: VDR homodimer (NR concentration 270 nM)
Assay: PBM binding z-score (relative to random genomic background probes); higher = stronger binding; sequences stand for … in GC…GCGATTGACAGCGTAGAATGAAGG
readoutType: PBM binding z-score
Please reply with the value in numeric form only.

Look over these answered cases.
* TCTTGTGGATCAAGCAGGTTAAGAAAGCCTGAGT | 0.15
* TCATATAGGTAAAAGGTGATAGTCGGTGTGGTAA | 0.283

Below: the item to evaluate.
Query: State, in one line, measured PBM binding z-score of TCTTGTAGATCTAGCAGGTTAAGAAAGCCTGAGT
Response: -0.0564

---

Tested on: RXRa homodimer (NR concentration 180 nM)
Experiment: PBM binding z-score (relative to random genomic background probes); higher = stronger binding; sequences stand for … in GC…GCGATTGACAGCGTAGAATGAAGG
readoutType: PBM binding z-score
Please reply with the value in numeric form only.

Look over these answered cases.
• TCTCGGAGGACACGAAGGTCGGAGCTTTCCAGAG = 0.322
• CGTCCAAGGTCTGCAGGTCAGTGAAAGCGACGTG = 0.794
• ATACCAAGGTGATCGAGAGGTCGTTGATACTAAC = 1.71

Query: State, in one line, measured PBM binding z-score of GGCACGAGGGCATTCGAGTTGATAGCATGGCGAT
Response: 0.455

Query: State, in one line, measured PBM binding z-score of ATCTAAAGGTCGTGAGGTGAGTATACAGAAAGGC
Response: 5.37

Query: State, in one line, measured PBM binding z-score of CCTTACGGGTCACTCCAGGGTATAGCATCGGAGT
Response: 4.2

Query: State, in one line, measured PBM binding z-score of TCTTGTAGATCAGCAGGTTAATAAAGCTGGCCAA
Response: 0.393

Query: State, in one line, measured PBM binding z-score of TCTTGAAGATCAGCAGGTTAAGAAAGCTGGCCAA
Response: 0.316

Query: State, in one line, measured PBM binding z-score of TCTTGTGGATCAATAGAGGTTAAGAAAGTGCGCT
Response: 1.22

Query: State, in one line, measured PBM binding z-score of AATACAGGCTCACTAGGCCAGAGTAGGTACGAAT
Response: -0.169

Query: State, in one line, measured PBM binding z-score of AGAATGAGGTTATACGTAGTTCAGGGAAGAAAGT
Response: 2.57

Query: State, in one line, measured PBM binding z-score of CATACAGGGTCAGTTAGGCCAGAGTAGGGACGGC
Response: 2.94

Query: State, in one line, measured PBM binding z-score of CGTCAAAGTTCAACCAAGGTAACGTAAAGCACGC
Response: 4.98

Query: State, in one line, measured PBM binding z-score of GCTAGTTGGACAGTAAAAGGTCACACACCGGTCG
Response: 4.94
